Tested on: HOP-62 NSCLC
measurementDescription: NCI-60 one-dose screen, 48 h (100 = growth as untreated, 0 = no growth, -100 = all killed)
conditionDetails: 10 µM unless noted
About 83,000 compounds went through this panel and 20% of them were active in at least one assay; those are over-represented in the sample as a whole.
For each record, write down the corresponding growth.
Answers are plain numbers, in %.

>  <molecule>
CCCCCCCCCCCCCCCCCCSC(=N)N

>  <growth (%)>
81.6

$$$$
>  <molecule>
COc1cc2c(c(OC)c1OC)-c1ccc(SC)c(=O)cc1[C@@H](NC1OC(CO)C(O)C(O)C1O)CC2 (some centres not stated)

>  <growth (%)>
25.9

$$$$
>  <molecule>
CC(CO)(CO)C(=O)O

>  <growth (%)>
95.7

$$$$
>  <molecule>
CCCCn1cnc2c(=O)[nH]cnc21

>  <growth (%)>
105

$$$$
>  <molecule>
CCC1CCC(C)NC1 (configuration not stated)

>  <growth (%)>
101

$$$$
>  <molecule>
CC(=O)NC(CCC(=O)c1ccccc1)C(=O)O (configuration not stated)

>  <growth (%)>
76.2

$$$$

Give me growth for each of these molecules, listed below.
1. CC(C)C(=O)OCCOc1ccc(C(C)(C)C)cc1
2. Nc1ncc([N+](=O)[O-])cn1
3. CCCCNC(=O)c1ccc(OCC)cc1
4. O=C(CC(CC(=O)c1ccccc1)c1ccccn1)c1ccccc1
5. N#C/C(=C\c1ccc(C#N)cc1)C(=O)c1ccccc1

[102, 103, 101, 105, 103]

Each molecule below has a recorded value; state its growth.
1. COc1ccc(Nc2cc(Cl)ccc2C(=O)O)cn1
2. CS(=O)CC(=N\O)/C(CS(C)=O)=N\O (configuration not stated)
3. CC(C)Sc1ncnc2nc[nH]c12
4. Cc1cc(Cc2ccccc2)c(O)c(Cc2ccccc2)c1

111
102
105
85.5

Provide reported growth for each item, in the same order as listed.
1. C=CCC(OC(C)=O)c1ccc(C(C)C)cc1 (configuration not stated)
2. O=C(NCc1ccccc1)/C(=C/c1ccccc1)NC(=O)c1ccccc1
3. Cc1ccnc(Nc2nc3ccccc3[nH]2)n1

1. 109
2. 104
3. 97.4

Your task in this section: give growth for each listed record.
1. CC(=O)N(C(C)=O)c1ccc(C)cc1
2. Nc1ccc(F)c(Cl)c1F
3. O=C(O)c1cccc(-n2ncc(Cl)c(Cl)c2=O)c1
4. Cc1c(-c2ccc(C3CCCCC3)cc2)nc2ccc(F)cc2c1C(=O)O

[105, 112, 100, 61.7]

###

Tested on: SF-539 CNS
measurementDescription: NCI-60 one-dose screen, 48 h (100 = growth as untreated, 0 = no growth, -100 = all killed)
conditionDetails: 10 µM unless noted
Procedure: Cells are grown in 96 well plates and exposed to the test compound for 48 hours. Compounds are tested at a single concentration, which is 10^-5 M for most compounds. The reported endpoint is percent growth (GI% or GIPRCNT), where numbers from 0 - 100% represent growth inhibition, and numbers from -100% - 0 represent cell death. For example, a value of 40 represents 60% growth inhibition. A value of 0 means no net growth occurred over the course of the experiment. […]
This is part of a sample that, as a whole, favours compounds with a hit. Of some 83,000 tested, about 20% had one in any assay. Calls of active or inactive are those of the source. Rule for the calls: active = growth percent below 10; inactive = the rest.
Provide the reported growth of each item.

>  <compound>
CN(C(=S)S(=O)(=O)C12CC3CC(CC(C3)C1)C2)c1ccccc1

>  <growth>
97.6% (inactive)

$$$$

Value sought for every listed compound: growth.
1. COc1cc(N)c2ncccc2c1Cl
2. O=[N+]([O-])c1c(Cl)ncnc1Cl
3. CC(=O)NNC(=S)/N=C\C(C(=O)c1ccccc1)=C(/O)c1ccccc1

1: 87.3% (inactive); 2: 88.9% (inactive); 3: 101% (inactive)

###

Test system: UO-31 renal
measurementDescription: NCI-60 one-dose screen, 48 h
conditionDetails: 10 µM unless noted
Compounds without any hit were thinned out: in the full panel of roughly 83,000, 20% have a hit. Active and inactive are the calls of the source. How the source made its calls: active means growth percent below 10; inactive means the rest.
Write down the outcome that applies. Available outcomes: label 1 = active, label 0 = inactive

Solved entries:
>  <compound>
CC(=O)N(CCCCCCN(C(C)=O)C(C)=O)C(C)=O

>  <classLabel>
label 0

$$$$
>  <compound>
CCOC(=O)C(CCC#N)(CCC#N)C(=O)OCC

>  <classLabel>
label 0

$$$$
>  <compound>
COc1cc(N)c2ncccc2c1Cl

>  <classLabel>
label 0

$$$$
>  <compound>
CN1CCCN(C(c2ccccc2)c2ccc(Cl)cc2)CC1 (stereo unspecified)

>  <classLabel>
label 0

$$$$

For this compound, state the assay outcome: "CC(=O)O[C@H]1CC[C@]2(C)C3=C(C(=O)C[C@H]2C1(C)C)[C@]1(C)CC[C@H]([C@H](C)CCC(=O)O)[C@@]1(C)CC3=O"
label 0

###

Test system: OVCAR-8 ovarian
measurementDescription: NCI-60 one-dose screen, 48 h
conditionDetails: 10 µM unless noted
About 83,000 compounds went through this panel and 20% of them were active in at least one assay; those are over-represented in the sample as a whole. Calls of active or inactive are those of the source. Rule for the calls: active = growth percent below 10; inactive = the rest.
Mark one answer only. Choices: active, inactive

Answered examples (8):
>  <compound>
Nc1ncc([N+](=O)[O-])cn1

>  <classLabel>
inactive

$$$$
>  <compound>
NC(=O)c1cc2c3ccccc3ccn2c1-c1ccccc1

>  <classLabel>
active

$$$$
>  <compound>
Cc1cc2c3ccc(C)[n+](C)c3ccc2n1C

>  <classLabel>
inactive

$$$$
>  <compound>
CC(=O)Oc1c(Cl)cccc1-c1ccccc1

>  <classLabel>
inactive

$$$$
>  <compound>
CC1=CC(=Nc2ccc(N(C)C)cc2)C=C(C)C1=O

>  <classLabel>
inactive

$$$$
>  <compound>
CCC(=O)Oc1c(C)cc(O)c2ccccc12

>  <classLabel>
inactive

$$$$
>  <compound>
NC(CO)(CO)c1ccccc1

>  <classLabel>
inactive

$$$$
>  <compound>
CCOC(=O)/C(C#N)=C\c1c[nH]c2ccccc12

>  <classLabel>
inactive

$$$$

// param item: "Nc1ncnc(Nc2ccc(C(F)(F)F)cc2)n1" ; yields the recorded call
inactive

Assay result, entry "COc1ccc(Br)c(C=O)c1" — outcome?
inactive

Field: outcome | Entry: "Nc1ccc(F)c(Cl)c1F"
inactive

Call for entry "c1ccc(Oc2c3ccccc3nc3ccccc23)cc1" :
inactive

# fetch the recorded call for "O=S(=O)(c1ccc(NC(=S)NCc2cccnc2)cc1)N1CCCCC1" here
inactive

Could you kindly confirm the outcome this assay logged for "CCCCN(C(=O)CC)c1ccccc1" ?
inactive

For "O=C1C=Cc2ccccc2/C1=C/c1[nH]c(=O)[nH]c1O" , which call appears in the assay record?
inactive

Hi, sorry to bother you, what did the test record for "O=C(NCc1ccco1)Nc1cccc2c(NC(=O)NCc3ccco3)cccc12" ?
active

For CC(C)OCC(CCl)OC(=O)Nc1ccccc1 (stereo unspecified) , which call appears in the assay record?
inactive

Record lookup: outcome of this test for CC(C)C1CCC(C)C(O)C1 (stereo unspecified) ?
inactive

Hi, sorry to bother you, what did the test record for "CC(=O)N=c1ccc2nc3c(cc(N)c4ccccc43)oc-2c1" ?
active

Record lookup: outcome of this test for "COC(=O)c1cccc([N+](=O)[O-])c1" ?
inactive

Hello, I am checking results. What call was entered for CCN1CCCC(N2c3ccccc3Sc3ccccc32)C1 (stereo unspecified) ?
inactive

Check the results log: what was the call for "CCN(CC)CCN1CNC(=S)NC1" ?
inactive

Record lookup: outcome of this test for CCC12OC(COc3ccccc3)CN1CCN2c1ccccc1 (stereo unspecified) ?
inactive

###

System: HCT-15 colon
measurementDescription: NCI-60 one-dose screen, 48 h (100 = growth as untreated, 0 = no growth, -100 = all killed)
conditionDetails: 10 µM unless noted
Compounds without any hit were thinned out: in the full panel of roughly 83,000, 20% have a hit.
metricName: growth (%)
Numbers only, in %.

Please review the following examples before continuing.
>  <compound>
CC(=O)OC(C)c1cccc(C#N)c1 (stereo not given)

>  <growth (%)>
105

$$$$
>  <compound>
CCNc1ncnc2[nH]ncc12

>  <growth (%)>
102

$$$$
>  <compound>
CC(=O)OCC1OC(n2cnc3c(=S)nc(N)[nH]c32)C(OC(C)=O)C1OC(C)=O (stereo not given)

>  <growth (%)>
79.3

$$$$
>  <compound>
Cc1onc(-c2c(F)cccc2Cl)c1-c1ncc(-c2ccc(Br)cc2)o1

>  <growth (%)>
17.7

$$$$
>  <compound>
O=C(O)Cc1cccc2ccccc12

>  <growth (%)>
102

$$$$
>  <compound>
CS(=O)(=O)c1ccc(/C=C\C(=O)O)cc1

>  <growth (%)>
96.1

$$$$
>  <compound>
CC(=O)Nc1ccc(C(=O)c2ccc(S(=O)(=O)Nc3ccccc3)cc2)cc1

>  <growth (%)>
104

$$$$
>  <compound>
CCOC(=O)c1cc(Cl)c(O)c(Cl)c1

>  <growth (%)>
104

$$$$
>  <compound>
Cc1ccc(N)c(S(=O)(=O)O)c1

>  <growth (%)>
103

$$$$

Could you now consider this next compound?
"Cn1c(=O)c2nc3c(=O)n(C)c(=O)n(C)c3nc2n(C)c1=O" tested on HCT-15 colon gave growth: 109
